All figures here come from patent US20090023773A1.

Hi there, I'd appreciate the recorded pIC50 for every entry that follows.
TARGET OR SYSTEM: recombinant homomeric hASIC1a channels (Homo sapiens, UniProt P78348)
Construct: expressed in transfected cells; host or cells: Xenopus laevis oocytes (nuclear microinjection of expression vector such as pcDNA3)
Sequence (P78348 whole entry): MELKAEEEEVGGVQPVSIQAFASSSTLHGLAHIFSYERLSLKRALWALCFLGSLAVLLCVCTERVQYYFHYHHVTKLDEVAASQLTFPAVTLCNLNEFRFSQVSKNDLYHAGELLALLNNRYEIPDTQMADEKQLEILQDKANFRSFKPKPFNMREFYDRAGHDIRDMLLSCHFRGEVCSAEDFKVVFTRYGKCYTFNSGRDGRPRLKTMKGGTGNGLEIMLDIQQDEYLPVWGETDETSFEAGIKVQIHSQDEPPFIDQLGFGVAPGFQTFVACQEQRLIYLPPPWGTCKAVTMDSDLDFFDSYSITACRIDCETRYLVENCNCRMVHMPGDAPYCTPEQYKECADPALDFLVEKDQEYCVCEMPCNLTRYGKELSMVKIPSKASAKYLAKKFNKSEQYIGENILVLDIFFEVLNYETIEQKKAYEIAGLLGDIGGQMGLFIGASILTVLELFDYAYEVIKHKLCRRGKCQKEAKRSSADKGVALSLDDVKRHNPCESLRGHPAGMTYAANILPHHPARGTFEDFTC
PROCEDURE SUMMARY: Two-electrode voltage clamp in Xenopus laevis oocytes expressing gated ion channels (Example 4)
Type: cell-based
ASSAY CONTEXT: Table 2; generated using oocytes as in Example 4
pIC50: −log10 of the molar value.

// sample Cc1cc(OC2CCN(Cc3ccccc3)CC2)c2ccc(F)cc2n1 [Compound 80] , its pIC50 was < 4.52

// sample Cc1cc(OC2CCN(Cc3ccccc3)CC2)c2cc(-c3nnn[nH]3)ccc2n1 [Compound 58] , its pIC50 was < 4.52

// sample Cc1cc(OC2CCN(Cc3ccc(C(=O)O)cc3)CC2)c2ccccc2n1 [Compound 66] , its pIC50 was < 4.52

// sample COc1cc(F)cc2c(OC3CCN(Cc4ccccc4C#N)CC3)cc(C)nc12 [Compound 34] , its pIC50 was < 4.52

// sample Cc1cc(OC2CCN(Cc3ccccc3-c3nnn[nH]3)CC2)c2cc(O)ccc2n1 [Compound 56] , its pIC50 was 5.00 to 7.00

// sample Cc1cc(OC2CCN(Cc3ccccc3C(=O)Nc3ccc(C(=O)O)cc3)CC2)c2cccc(F)c2n1 [Compound 54] , its pIC50 was 5.00 to 7.00

// sample Cc1cc(OC2CCN(Cc3ccccc3)CC2)c2cc(F)ccc2n1 [Compound 29] , its pIC50 was 5.00 to 7.00

// sample Cc1cc(NC2CCN(Cc3ccccc3)CC2)c2ccccc2n1 [Compound 40] , its pIC50 was < 4.52

// sample Cc1cc(OC2CCN(Cc3ccc4ccccc4c3)CC2)c2cccc(F)c2n1 [Compound 84] , its pIC50 was < 4.52

// sample COc1ccc(CN2CCC(Oc3cc(C)nc4ccc(Br)cc34)CC2)cc1 [Compound 48] , its pIC50 was < 4.52

// sample c1ccc(CN2CCC(Oc3nccc4ccccc34)CC2)cc1 [Compound 83] , its pIC50 was < 4.52

// sample COc1ccc(CN2CCC(Oc3cc(C)nc4c(F)cccc34)CC2)c(F)c1 [Compound 47] , its pIC50 was 5.00 to 7.00
